# procedureDetails: Solvent compatibility with viscosity-increasing polymer, viscosity of solution: IB
# Type: physicochemical
# particulars: polymer added at 5% by weight, up to 3 days agitation
Reported Viscosity of solution with IB values for the following compounds.

> print(dat)
   smilestext  recordedmeasurement
1    C1CCCCC1                   59
2     CCCCCCC                   11
3   Cc1ccccc1                   20

The compound identified as CCCCCC registered its Viscosity of solution with IB at 7.7

====

Reported Viscosity of solution with CAB values follow for various molecules
# procedureDetails: Solvent compatibility with viscosity-increasing polymer, viscosity of solution: CAB
# Type: physicochemical
# Design: unit not given here
# particulars: polymer added at 5% by weight, up to 3 days agitation

Examples from the recorded data:
> print(dat)
   molecule  recordedmeasurement
1  CCC(C)=O                  1.8
2  C1COCCO1                  6.9
3   CC(C)=O                  1.8

The recorded Viscosity of solution with CAB for entry CCOC(C)=O [Ethyl acetate] equals 2.3

Query C1CCOC1 [THF, tetrahydrofuran] yields Viscosity of solution with CAB of 3.1

====

# procedureDetails: Solvent compatibility with viscosity-increasing polymer, viscosity of solution: VEE
# Type: physicochemical
# Design: unit not given here
# particulars: polymer added at 5% by weight, up to 3 days agitation
observationType: Viscosity of solution with VEE
Note: the reply should be a number with no unit written.

Worked cases, Viscosity of solution with VEE given:
> print(dat)
   smilestext                 observationtype  recordedmeasurement
1      CCCCCC  Viscosity of solution with VEE                  0.9
2     CCCCCCC  Viscosity of solution with VEE                  1.5
3       CCOCC  Viscosity of solution with VEE                  1.2
4    C1CCCCC1  Viscosity of solution with VEE                  4.5

// moving on: another record for Viscosity of solution with VEE
molecule Cc1ccccc1 , Viscosity of solution with VEE observed: 3.1

====

# procedureDetails: Solvent miscibility and compatibility with ethoxyethyl cyanoacrylate
# Type: physicochemical
# particulars: 3 ml solvent + 3 ml EECA, 1 Day
observationType: EECA compatibility, 1 Day

> print(dat)
    smilestext  recordedmeasurement
1  CC(=O)C(C)C                LtBrn
2      CCCCCCC                 2Lyr
3     C1CCCCC1                 2Lyr
4       CCCCCC                 2Lyr

====

# procedureDetails: Solvent miscibility and compatibility with ethoxyethyl cyanoacrylate
# Type: physicochemical
# particulars: 3 ml solvent + 3 ml EECA, 2 Day
observationType: EECA compatibility, 2 Day (Lyr)
Report the figure in Lyr without appending any unit label.

Worked set:
> print(dat)
                 compound            observationtype  units  recordedmeasurement
1       CCCCCCC [Heptane]  EECA compatibility, 2 Day    Lyr                    2
2  C1CCCCC1 [Cyclohexane]  EECA compatibility, 2 Day    Lyr                    2

As a next step, examine the compound that follows.
Looking up CCCCCC [Hexane] , I see its EECA compatibility, 2 Day listed as 2

The values you see were collected from patent US20150136150A1.
